system.under.test: human ether-à-go-go-related gene (hERG) potassium channel (human);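 further: peak tail current of the secondary pulse compared with the same well before compound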
Sequence (Q12809 whole entry, looked up): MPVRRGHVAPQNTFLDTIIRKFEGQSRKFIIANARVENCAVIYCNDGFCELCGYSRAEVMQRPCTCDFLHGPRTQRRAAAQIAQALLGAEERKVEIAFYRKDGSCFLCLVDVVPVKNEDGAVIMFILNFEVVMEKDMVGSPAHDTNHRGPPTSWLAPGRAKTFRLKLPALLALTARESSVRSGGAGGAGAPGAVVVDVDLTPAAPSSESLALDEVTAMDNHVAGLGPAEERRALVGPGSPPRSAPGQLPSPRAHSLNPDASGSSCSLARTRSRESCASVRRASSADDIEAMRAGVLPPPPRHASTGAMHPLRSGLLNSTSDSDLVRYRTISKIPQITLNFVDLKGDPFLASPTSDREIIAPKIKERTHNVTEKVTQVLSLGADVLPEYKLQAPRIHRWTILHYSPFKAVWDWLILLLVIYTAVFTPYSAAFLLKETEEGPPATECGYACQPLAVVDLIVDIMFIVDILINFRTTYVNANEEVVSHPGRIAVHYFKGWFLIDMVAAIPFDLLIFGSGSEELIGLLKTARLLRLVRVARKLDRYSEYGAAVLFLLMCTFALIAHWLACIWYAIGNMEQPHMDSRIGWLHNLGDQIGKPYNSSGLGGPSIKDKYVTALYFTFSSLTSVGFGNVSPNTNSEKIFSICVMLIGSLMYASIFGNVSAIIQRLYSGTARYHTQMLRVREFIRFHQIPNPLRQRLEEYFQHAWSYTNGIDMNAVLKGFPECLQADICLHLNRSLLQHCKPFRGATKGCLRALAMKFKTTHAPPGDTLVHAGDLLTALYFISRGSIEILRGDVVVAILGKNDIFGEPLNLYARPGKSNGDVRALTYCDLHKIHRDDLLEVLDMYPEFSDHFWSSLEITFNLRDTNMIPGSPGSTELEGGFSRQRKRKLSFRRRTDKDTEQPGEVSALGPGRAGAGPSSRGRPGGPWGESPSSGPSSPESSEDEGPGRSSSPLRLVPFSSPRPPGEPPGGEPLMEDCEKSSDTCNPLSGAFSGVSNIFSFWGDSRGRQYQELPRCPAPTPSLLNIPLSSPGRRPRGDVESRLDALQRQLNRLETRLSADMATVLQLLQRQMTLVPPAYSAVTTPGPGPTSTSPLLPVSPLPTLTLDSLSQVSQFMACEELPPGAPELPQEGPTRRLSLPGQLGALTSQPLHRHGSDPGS
assay.info: primary screen, population patch clamp on CHO cells stably expressing hERG; higher = less effect of the substance
About 14,000 (4.5%) of roughly 310,000 compounds showed an effect of 50% or more. Effects have a minus sign here. Many of the other results were omitted from the sample, so strong results are more common in it than they were.
# maps each entry to its hERG current change (%, negative = inhibition) at 10uM
measured.property: hERG current change (%, negative = inhibition) at 10uM (%)

                           molecular_string                         system_under_test  recorded_result
0  Cc1ccc(-c2nnc(-c3ccccc3)c(N3CCOCC3)n2)cc1  human ether-à-go-go-related gene (hERG) potassium channel (human)              -30
1  CN1CCN(c2nc(-c3ccc(C(C)(C)C)cc3)nc3ccccc23)CC1.Cl  human ether-à-go-go-related gene (hERG) potassium channel (human)            -2.05
2      c1cncc(-c2nc(N3CCCCCC3)c3ccccc3n2)c1  human ether-à-go-go-related gene (hERG) potassium channel (human)            -92.9
3  O=S(=O)(/C=C/c1ccccc1)N1CCN(c2nc(-c3cccnc3)nc3ccccc23)CC1  human ether-à-go-go-related gene (hERG) potassium channel (human)            -23.6
4  CN1CCN(c2nc(-c3ccc(Br)cc3)nnc2-c2ccccc2)CC1  human ether-à-go-go-related gene (hERG) potassium channel (human)            -63.5
5       c1cncc(-c2nc(N3CCOCC3)c3ccccc3n2)c1  human ether-à-go-go-related gene (hERG) potassium channel (human)              -17
6  CCCOc1ccc(-c2nc(N3CCN(C)CC3)c3ccccc3n2)cc1  human ether-à-go-go-related gene (hERG) potassium channel (human)            -21.6
7       c1ccc2c(N3CCOCC3)nc(-c3ccncc3)nc2c1  human ether-à-go-go-related gene (hERG) potassium channel (human)            -31.3
8     CCc1ccccc1NC(=O)CNC(=O)CSC(=S)N1CCCC1  human ether-à-go-go-related gene (hERG) potassium channel (human)            -3.17
9        c1ccc2c(N3CCCC3)nc(-c3ccncc3)nc2c1  human ether-à-go-go-related gene (hERG) potassium channel (human)            -56.9

// data source = paper PMC4336329
